assay summary: Hepatocyte stability and metabolism (parent remaining, acid and OPD formation)
Format: in vitro ADME
condition: human hepatocytes; OPD formation by LC-MS/MS after phenylglyoxal derivatisation
quantity kind: OPD

Nc1ccccc1NC(=O)c1ccc2nn(Cc3cncc(F)c3)cc2c1 [Compound A14] :: No OPD
Cn1cc(Cn2ncc3cc(C(=O)Nc4ccccc4N)ccc32)cn1 [Compound A3] :: No OPD
Nc1cc(F)ccc1NC(=O)c1ccc2c(cnn2Cc2ccc(F)c(F)c2)c1 [Compound A10] :: No OPD
Nc1ccccc1NC(=O)c1ccc2c(cnn2Cc2ccc(F)c(F)c2)c1 [Compound A9] :: No OPD
Nc1ccccc1NC(=O)c1ccc2c(cnn2Cc2cccnc2)c1 [Compound A1] :: No OPD
Nc1ccccc1NC(=O)c1ccc2c(cnn2Cc2ccccc2)c1 [Compound A2] :: No OPD
Cc1ccc(Cn2cc3cc(C(=O)Nc4ccccc4N)ccc3n2)c(C)n1 [Compound A15] :: No OPD
Nc1cc(F)ccc1NC(=O)c1ccc2c(cnn2CC2CC2)c1 [Compound A12] :: No OPD

Note: attention shifts to another entry.
Recorded OPD for Nc1cc(F)ccc1NC(=O)c1ccc2c(cnn2Cc2cccnc2)c1 [Compound A6] , please?
No OPD
